Origin of measurements: ChEMBL document CHEMBL1124630

assay: Urinary recovery after 24 hr in plasma after oral administration in dog (25 mg/kg); format: ADME, organism-based, Canis lupus familiaris; settings: urine, read-out: UR
reported_endpoint: dose excreted at 24 h (%)
The reply should contain only the number, in %.

[in] Can you share its dose excreted at 24 h? I mean this compound: `CC(C)(C)n1cc(C(=O)O)c(=O)c2cc(F)c(N3CCNCC3)cc21`
[out] 17

[in] Can you share its dose excreted at 24 h? I mean this compound: O=C(O)c1cn(C2CC2)c2cc(N3CCNCC3)c(F)cc2c1=O [CIPROFLOXACIN]
[out] 17

[in] Can you share its dose excreted at 24 h? I mean this compound: `CC(C)(C)n1cc(C(=O)O)c(=O)c2cc(F)c(N3CCNCC3)nc21`
[out] 12
